Entry source: a melting point compilation (Tetko et al.; mined from patent text by program, amines drawn as free bases though some values may be those of a salt)

Entries and their measured melting point follow.

{"COMPOUND": "Cc1cc(C(=O)N(C)C)ncc1C(c1c(F)ccc(F)c1F)S(=O)(=O)CCC(F)(F)F (configuration not stated)", "melting point": "203 to 204 °C"}
{"COMPOUND": "COc1cc(C(=O)N[C@@H]2c3cc(OC(F)(F)F)ccc3OC(C)(C)[C@H]2O)c([N+](=O)[O-])cc1OC", "melting point": "97 °C"}
{"COMPOUND": "COC(=O)C1=C(C)NC(C)=C(C(=O)OCC2CCCO2)C1c1ccccc1Cl (configuration not stated)", "melting point": "165 to 167 °C"}
{"COMPOUND": "Cc1oc(-c2ccccc2)nc1COc1ccc(O)cc1", "melting point": "168 to 169 °C"}
{"COMPOUND": "O=C(Cl)CCS(=O)(=O)CCCl", "melting point": "73 to 75 °C"}
{"COMPOUND": "CNC(=O)c1c(-c2ccccc2)oc(-c2ccccc2)cc1=O", "melting point": "196 to 197 °C"}
{"COMPOUND": "CC(C)(C(N)=O)c1nnc2ccc(OCCCN3CCC(OC(c4ccccc4)c4ccccc4)CC3)nn12", "melting point": "133 to 136 °C"}
{"COMPOUND": "COc1cc2c(cc1OC)C(C#N)N(C(=O)c1ccccc1)C=C2 (configuration not stated)", "melting point": "155 to 157 °C"}
{"COMPOUND": "Cc1nnc(-c2ccc3occ(-c4ccc(C(=O)N(C)C)c(F)c4)c3c2)o1", "melting point": "152 to 153 °C"}
{"COMPOUND": "NC(=O)c1cccc(OCCCCCBr)c1", "melting point": "98 to 99 °C"}
{"COMPOUND": "COc1cc(Cl)c(C(=O)c2ccccc2F)c(OC)c1", "melting point": "88 to 92 °C"}
{"COMPOUND": "CN(C)c1ccc(C(=O)C#Cc2cccc(OCc3ccccc3)c2)cc1", "melting point": "134 to 136 °C"}
{"COMPOUND": "CCCn1c(NC(=O)c2ccccc2)nc2ccccc2c1=O", "melting point": "133 to 135 °C"}
{"COMPOUND": "ON=C1C[C@H]2CC=CC[C@H]2C1", "melting point": "100 to 103 °C"}
{"COMPOUND": "N#Cc1cnn(-c2ccc(Cl)c(Cl)c2Cl)c1NCCO", "melting point": "197 to 199 °C"}
{"COMPOUND": "Cc1ccc(NC(=O)Nc2ccc(-c3c(Cc4cccnc4)sc4ncnc(N)c34)cc2)cc1", "melting point": "220 to 223 °C"}
{"COMPOUND": "COc1ccc2[nH]c(S(=O)Cc3ncc(C)c(N4CCOCC4)c3Cl)nc2c1 (configuration not stated)", "melting point": "147 to 148 °C"}
{"COMPOUND": "CCOC(=O)CNc1ccc2c(c1)CCC2", "melting point": "49 °C"}
{"COMPOUND": "CCc1cc(Nc2ccc(N)cc2)n2nccc2n1", "melting point": "153 to 154 °C"}
{"COMPOUND": "CS(=O)(=O)NC(=O)CCCCOc1cccc(O)c1C=O", "melting point": "136 to 138 °C"}
{"COMPOUND": "O=C(CCl)Nc1cc(Oc2ncccc2C(F)(F)F)c(Cl)cc1F", "melting point": "146 to 149 °C"}
{"COMPOUND": "CCC(C)(C#N)NC(=O)Cc1c(C)cc(C)cc1C (configuration not stated)", "melting point": "155 to 157 °C"}
{"COMPOUND": "Clc1ccc(-c2noc(CCC#Cc3ccccn3)n2)c(Cl)c1", "melting point": "77 to 78 °C"}
{"COMPOUND": "CCCCCCCCCCCCC(O)CN(CCC#N)CCCCCCCCCCCCN(CCC#N)CC(O)CCCCCCCCCCCC (configuration not stated)", "melting point": "37 to 38 °C"}
{"COMPOUND": "N#Cc1cc(F)c(-n2cnc(C(F)(F)F)cc2=O)cc1F", "melting point": "95 °C"}
{"COMPOUND": "ON=Cc1ccc2c(c1)ncn2-c1cccc(COCc2ccccn2)c1", "melting point": "154 to 155 °C"}
{"COMPOUND": "CN1C(=N)N(c2ccccc2)CC1=O", "melting point": "169 to 170 °C"}
{"COMPOUND": "O=C(O)c1ccc(NCCOc2ccc(Cl)cc2Cl)cc1", "melting point": "203 to 205 °C"}
{"COMPOUND": "COC(=O)c1cccc(-c2ccccc2C#N)c1", "melting point": "83 to 85 °C"}
{"COMPOUND": "CCC(CC)Nc1c([N+](=O)[O-])cc(CC=NO)c(C(C)C)c1[N+](=O)[O-]", "melting point": "114 to 115 °C"}
{"COMPOUND": "COc1ccc(OC)c2c1CC[C@](O)(C(=O)O)C2", "melting point": "91 to 93 °C"}
{"COMPOUND": "O=C1CC(/C=C/c2ccncc2)=Nc2ccccc2N1Cc1ccccc1", "melting point": "208 to 210 °C"}
{"COMPOUND": "CC(C)n1nc(-c2nc(NCCN(C)C)c(N)nc2-c2ccccc2)ccc1=O", "melting point": "188 to 189 °C"}
{"COMPOUND": "COc1ccc(NN=C(Sc2ccc(Cl)cc2)C(C)=O)cc1", "melting point": "112 to 114 °C"}
{"COMPOUND": "CCN1C(=O)Cc2cc(OCc3ccccc3C(=O)O)ccc21", "melting point": "180 to 181 °C"}
{"COMPOUND": "Cc1ccc(-c2ccc(C)cc2C=CC#Cc2ccc(C(=O)O)cc2)cc1", "melting point": "61 to 67 °C"}
{"COMPOUND": "CCOC(=O)c1cnc2c3ccccc3ccn2c1=O", "melting point": "183 to 184 °C"}
{"COMPOUND": "CC(=O)O[C@H]1[C@H](NC(C)=NC#N)c2cc(C#N)ccc2OC1(C)C (relative stereo)", "melting point": "236 to 238 °C"}
{"COMPOUND": "O=C(O)CNC(=O)c1ccc([N+](=O)[O-])cc1F", "melting point": "156 to 158 °C"}
{"COMPOUND": "CCOC(=O)c1ccc(S(=O)(=O)C(Br)(Br)Br)cc1", "melting point": "134 to 136 °C"}
{"COMPOUND": "Cc1c(C(=O)c2cnn(C(C)C)c2O)ccc2sc(=O)n(C)c12", "melting point": "175 to 177 °C"}
{"COMPOUND": "CC(C)CNC1=NS(=O)(=O)c2ccc(Cl)cc2N1", "melting point": "298 to 301 °C"}
